These measurements were taken from patent US7666890B2.

System: Digiatria sanguinalis
Test: Test of herbicidal activities (greenhouse pot method)
Assay type: in vivo
Conditions: single dose 300 g ai./h, treated before/after germination, 15 days later, greenhouse pot
parameter: Herbicidal activity Digiatria sanguinalis (inhibition level)

INSERT INTO assay_data (compound, value_observed) VALUES
  ('Cc1nn(-c2cc3nc(SCc4coc5ccccc5c4=O)sc3cc2Br)c(=O)n1C(F)F', 'B (80 ≦ B < 90%)'),
  ('CCCCS(=O)(=O)c1nc2cc(-n3nc(C)n(C(F)F)c3=O)c(F)cc2s1', 'A (90 ≦ A ≦ 100%)'),
  ('CCOC(=O)CSc1nc2cc(-n3nc(C(F)(F)F)n(C(F)F)c3=O)c(Br)cc2s1', 'B (80 ≦ B < 90%)'),
  ('Cc1nn(-c2cc3nc([S+](C)[O-])sc3cc2Br)c(=O)n1C(F)F (centres unmarked)', 'B (80 ≦ B < 90%)'),
  ('CCSc1nc2cc(-n3nc(C)n(C(F)F)c3=O)c(F)cc2s1', 'A (90 ≦ A ≦ 100%)');

From here, focus on the item given below.
Req: Recorded Herbicidal activity Digiatria sanguinalis (inhibition level) of CCCCCC[S+]([O-])c1nc2cc(-n3nc(C)n(C(F)F)c3=O)c(F)cc2s1 (centres unmarked) , please.
Resp: A (90 ≦ A ≦ 100%)

* * *

Tested on: Digiatria sanguinalis
Assay: Test of herbicidal activities (greenhouse pot method)
Type: in vivo
Settings: single dose 300 g ai./h, treated before/after germination, 15 days later, greenhouse pot
parameter: Herbicidal activity Digiatria sanguinalis (inhibition level)

Example molecules with recorded Herbicidal activity Digiatria sanguinalis (inhibition level):
INSERT INTO assay_data (molecule, target_under_test, value_observed) VALUES
  ('CCCCSc1nc2cc(-n3nc(C(F)(F)F)n(C(F)F)c3=O)c(Cl)cc2s1', 'Digiatria sanguinalis', 'A (90 ≦ A ≦ 100%)'),
  ('Cc1nn(-c2cc3nc(S(=O)(=O)Cc4ccc(Br)cc4)sc3cc2Cl)c(=O)n1C(F)F', 'Digiatria sanguinalis', 'A (90 ≦ A ≦ 100%)'),
  ('Cc1nn(-c2cc3nc(SCc4ccccc4)sc3cc2F)c(=O)n1C(F)F', 'Digiatria sanguinalis', 'B (80 ≦ B < 90%)'),
  ('C=CCS(=O)(=O)c1nc2cc(-n3nc(C)n(C(F)F)c3=O)c(Br)cc2s1', 'Digiatria sanguinalis', 'A (90 ≦ A ≦ 100%)'),
  ('CCOC(=O)C(C)Sc1nc2cc(-n3nc(C)n(C(F)F)c3=O)c(Br)cc2s1 (centres unmarked)', 'Digiatria sanguinalis', 'B (80 ≦ B < 90%)');

From here, focus on the item given below.
Req: Form field: Herbicidal activity Digiatria sanguinalis (inhibition level) recorded for "Cc1nn(-c2cc3nc(S(C)(=O)=O)sc3cc2F)c(=O)n1C(F)F" with Digiatria sanguinalis (enter value)
Resp: B (80 ≦ B < 90%)

* * *

Please respond with reported inhibition at 300 g/ha for every item in the list.
Test system: Chenopodium album
Test: Test of herbicidal activities (greenhouse pot method)
Format: in vivo
Settings: Chenopodium album, 360 h; single dose 300 g ai./h, treated before/after germination, 15 days later, greenhouse pot; read-out: Herbicidal activity Chenopodium album (inhibition level)

Example compounds with recorded inhibition at 300 g/ha:
INSERT INTO assay_data (compound, parameter, value_observed) VALUES
  ('CCOC(=O)CSc1nc2cc(-n3nc(C)n(C(F)F)c3=O)c(Cl)cc2s1', 'inhibition at 300 g/ha', '80 to 90%'),
  ('Cc1nn(-c2cc3nc([S+](C)[O-])sc3cc2F)c(=O)n1C (centres unmarked)', 'inhibition at 300 g/ha', '90 to 100%'),
  ('Cc1nn(-c2cc3nc([S+]([O-])Cc4ccccc4)sc3cc2F)c(=O)n1C (centres unmarked)', 'inhibition at 300 g/ha', '80 to 90%'),
  ('CCCS(=O)(=O)c1nc2cc(-n3nc(C)n(C)c3=O)c(F)cc2s1', 'inhibition at 300 g/ha', '50 to 60%');

From here, focus on the item given below.
Req: Recorded inhibition at 300 g/ha of "Cc1nn(-c2cc3nc(S(=O)(=O)Cc4ccccc4Cl)sc3cc2Cl)c(=O)n1C(F)F" , please.
Resp: 60 to 80%

* * *

Tested on: Digiatria sanguinalis
Experiment: Test of herbicidal activities (greenhouse pot method)
Assay type: in vivo
Settings: single dose 300 g ai./h, treated before/after germination, 15 days later, greenhouse pot
parameter: Herbicidal activity Digiatria sanguinalis (inhibition level)

INSERT INTO results (compound, target_under_test, value_observed) VALUES
  ('Cc1nn(-c2cc3nc(S(=O)(=O)Cc4ccccc4)sc3cc2F)c(=O)n1C [Compound 34]', 'Digiatria sanguinalis', 'A (90 ≦ A ≦ 100%)'),
  ('CCOC(=O)CS(=O)(=O)c1nc2cc(-n3nc(C)n(C(F)F)c3=O)c(F)cc2s1 [Compound 65]', 'Digiatria sanguinalis', 'B (80 ≦ B < 90%)'),
  ('C=CCSc1nc2cc(-n3nc(C(F)(F)F)n(C(F)F)c3=O)c(F)cc2s1 [Compound 123]', 'Digiatria sanguinalis', 'B (80 ≦ B < 90%)'),
  ('CCCS(=O)(=O)c1nc2cc(-n3nc(C)n(C(F)F)c3=O)c(F)cc2s1 [Compound 64]', 'Digiatria sanguinalis', 'A (90 ≦ A ≦ 100%)');

* * *

Test system: Brassica juncea
Assay: Test of herbicidal activities (greenhouse pot method)
Type: in vivo
Settings: Brassica juncea, 360 h; single dose 300 g ai./h, treated before/after germination, 15 days later, greenhouse pot; read-out: Herbicidal activity Brassica juncea (inhibition level)
Experimental: Garden soil was collected from regions where no pesticide is used and mixed uniformly with mountain soil and organic humus soil at a volume ratio of 1:1:1. Multiple flowerpots each having a diameter of 9.5 cm and a depth of 8 cm were filled with the soil mixture to 3/4 volume. After water was added to the soil and the soil was completely wet, seeds of three grass weeds and three broadleaf weeds were inserted into the flowerpots (10-15 seeds for each weed). […]
parameter: inhibition at 300 g/ha

Example molecules with recorded inhibition at 300 g/ha:
INSERT INTO assay_data (molecule, value_observed) VALUES
  ('Cc1nn(-c2cc3nc([S+]([O-])Cc4ccccc4)sc3cc2F)c(=O)n1C (centres unmarked) [Compound 101]', '50 to 60%'),
  ('Cc1nn(-c2cc3nc([S+](C)[O-])sc3cc2F)c(=O)n1C (centres unmarked) [Compound 102]', '60 to 80%'),
  ('Cc1nn(-c2cc3nc(S(=O)(=O)Cc4ccccc4Cl)sc3cc2Cl)c(=O)n1C(F)F [Compound 39]', '80 to 90%'),
  ('CCOC(=O)CSc1nc2cc(-n3nc(C)n(C(F)F)c3=O)c(Cl)cc2s1 [Compound 98]', '90 to 100%');

Req: Form field: inhibition at 300 g/ha recorded for CCCS(=O)(=O)c1nc2cc(-n3nc(C)n(C)c3=O)c(F)cc2s1 [Compound 48] with Brassica juncea (enter value)
Resp: 80 to 90%

* * *

Test system: Digiatria sanguinalis
Assay: Test of herbicidal activities (greenhouse pot method)
Format: in vivo
Details: single dose 300 g ai./h, treated before/after germination, 15 days later, greenhouse pot
parameter: Herbicidal activity Digiatria sanguinalis (inhibition level)

Example compounds with recorded Herbicidal activity Digiatria sanguinalis (inhibition level):
INSERT INTO measurements (compound, value_observed) VALUES
  ('CSc1nc2cc(-n3nc(C(F)(F)F)n(C(F)F)c3=O)c(Cl)cc2s1 [Compound 125]', 'B (80 ≦ B < 90%)'),
  ('CCSc1nc2cc(-n3nc(C)n(C(F)F)c3=O)c(Br)cc2s1 [Compound 80]', 'B (80 ≦ B < 90%)'),
  ('CC[S+]([O-])c1nc2cc(-n3nc(C)n(C(F)F)c3=O)c(F)cc2s1 (stereo not drawn) [Compound 113]', 'C (60 ≦ C < 80%)'),
  ('Cc1nn(-c2cc3nc(S(=O)(=O)Cc4cccc(Cl)c4)sc3cc2Cl)c(=O)n1C(F)F [Compound 40]', 'C (60 ≦ C < 80%)');

Give Herbicidal activity Digiatria sanguinalis (inhibition level) for all compounds that follow.
1. C#CCSc1nc2cc(-n3nc(C)n(C(F)F)c3=O)c(F)cc2s1 [Compound 130]
2. Cc1nn(-c2cc3nc(SCc4ccc(Br)cc4)sc3cc2Br)c(=O)n1C(F)F [Compound 26]
3. CCOC(=O)CS(=O)(=O)c1nc2cc(-n3nc(C)n(C(F)F)c3=O)c(Br)cc2s1 [Compound 54]
4. Cc1nn(-c2cc3nc(SCc4ccccc4Cl)sc3cc2Cl)c(=O)n1C(F)F [Compound 3]

Resp:
["C (60 ≦ C < 80%)", "C (60 ≦ C < 80%)", "C (60 ≦ C < 80%)", "C (60 ≦ C < 80%)"]
